- Tested on: SN12C
- PROCEDURE_SUMMARY: NCI tumour cell line growth inhibition, 48 h
Activity calls are given as the source filed them. Rule as the data show it: active = GI50 up to about 1.1 µM and inactive = higher.

COMPOUND: CC(C)OP(=O)(OC(C)C)c1nc(-c2ccccc2)n(-c2ccc([N+](=O)[O-])cc2)n1
GI50: > 100 µM (inactive)
--
COMPOUND: COC1=C(OC)C(=O)C(Cc2c(-c3ccccc3)nc3sc(Cl)cn23)=C(C)C1=O
GI50: 16.4 µM (inactive)
--
COMPOUND: Cc1nc(Nc2ccc(F)cc2)c2sc(=S)n(-c3ccc(F)cc3)c2n1
GI50: 14 µM (inactive)
--
COMPOUND: CN(C)CCn1c(=O)c2ccc(NCCCN(C)CCCNc3ccc4c(=O)n(CCN(C)C)c(=O)n5c6ccccc6c(=O)c3c45)c3c(=O)c4ccccc4n(c1=O)c23
GI50: < 0.01 µM (active)
--
COMPOUND: O=C1c2cc(O)c(O)cc2O[C@H](c2ccc(O)c(O)c2)[C@H]1O
GI50: > 100 µM (inactive)
--
COMPOUND: CC(C)N(C(=O)C12C3C4C5C3C1(C(=O)O)C5C42)C(C)C (centres undefined)
GI50: > 100 µM (inactive)
--
COMPOUND: CCN1CCC(O)(/C=C/c2ccc(C(C)C)cc2)C(C(=O)/C=C/c2ccc(C(C)C)cc2)C1 (centres undefined)
GI50: 2.47 µM (inactive)
--
COMPOUND: COC(=O)C1CCCN1C(=O)OC(C)(C)C (centres undefined)
GI50: > 100 µM (inactive)
--
COMPOUND: O=[N+]([O-])c1nccn1COCCI
GI50: > 100 µM (inactive)
--
COMPOUND: O=C1OC(c2cccc(C(F)(F)F)c2)(c2cccc(C(F)(F)F)c2)c2ccc3ccccc3c21
GI50: > 10 µM (inactive)
--
COMPOUND: CC(=O)O/N=C/c1c2ccccc2cc2ccccc12
GI50: 65.3 µM (inactive)
--
COMPOUND: Cc1c(F)c(N)c2c(=O)cc(-c3ccc(NC(=O)[C@@H](N)CCCCN)c(F)c3)oc2c1F
GI50: 14.9 µM (inactive)
--
COMPOUND: COc1cccc(/C=N/n2c(Cc3ccccc3)n[nH]c2=O)c1
GI50: > 19.7 µM (inactive)
--
COMPOUND: Cc1cc(O)nc(NN2C(Cl)C(=O)C2c2ccc(Cl)cc2)n1 (centres undefined)
GI50: 16.7 µM (inactive)
--
COMPOUND: CSc1nc(NCc2ccccc2)c2cnn(COCCO)c2n1
GI50: 75 µM (inactive)
--
COMPOUND: CC(C)OP(=O)(OC(C)C)C(C(C)C)N(C)/C(N)=N/C#N (centres undefined)
GI50: > 100 µM (inactive)
--
COMPOUND: CC1CC(C(=O)OC2OC(COC3OC(CO)C(OC4OC(C)C(O)C(O)C4O)C(O)C3O)C(O)C(O)C2O)C2CCC3(C)C(=CCC4(C)C3CCC3C(C)(CO)C(O)C(O)CC34C)C2C1C (centres undefined)
GI50: 20.7 µM (inactive)
--
COMPOUND: CC(C)C(=O)OCN(C)c1nc(N(C)COC(=O)C(C)C)nc(N(C)COC(=O)C(C)C)n1
GI50: 28.4 µM (inactive)
--
COMPOUND: O=C1/C(=C/c2ccccc2)CCc2ccc([N+](=O)[O-])cc21
GI50: > 75.9 µM (inactive)
